System: NCI/ADR-RES
Test: NCI tumour cell line growth inhibition, 48 h
The source made the active and inactive calls. Rule as the data show it: active = GI50 up to about 1.1 µM and inactive = higher.
Outcomes: Yes (active), No (inactive)

compound	label.class
CC1(C)[C@@H]2C[C@H]1C(Cc1cccc(C[C@H]3c4cc(-c5ccccn5)ncc4[C@H]4C[C@@H]3C4(C)C)c1)c1cc(-c3ccccn3)ncc12 (stereo partly drawn)	No
CC(O)(C#N)CC(O)(C(F)(F)Cl)C(F)(F)Cl (stereo not drawn)	No
C/C=C(/C)C(=O)O[C@@H]1c2c(C)coc2C[C@H]2CC[C@H](O)[C@H](C)[C@]21C	No
OC1CCCC1C(O)(C(F)(F)F)C(F)(F)F (stereo not drawn)	No
Cc1ccc(-c2cc(-c3c(C)nn(C)c(=O)c3N)n[nH]2)cc1	No
O=C1NC(N2CCOCC2)=N/C1=C\c1ccccc1	No
CN(C)CCC(C(=O)C(C)(C)C)c1ccccn1 (stereo not drawn)	No
COc1c(C)c(C/C=C(\C)CCCCO[Si](c2ccccc2)(c2ccccc2)C(C)(C)C)c(OC)c(OC)c1OC	No
O=C1CSC2(CC(/C=C/c3ccccc3Br)=NN2c2cccc(S(=O)(=O)O)c2)N1c1nc2ccccc2s1 (stereo not drawn)	No
CN(C)c1ccc(/C=N/n2c(-c3ccccc3)nc3ccccc3c2=O)cc1	No
O=C(O)CCSC1=NCCN1	No
COc1cc(N2C(=O)C(=O)C3(CCCCC3)C2=O)cc(OC)c1OC	No
Nc1ccccc1CCCC(=O)O	No
Cc1cc(NC(=O)C(=O)Cc2nc3ccccc3s2)ccc1Cl	No
COC(=O)c1ccccc1NCc1cc(O)ccc1O	No
OC(C1CCC=NN1C(O)(C(F)(F)F)C(F)(F)F)(C(F)(F)F)C(F)(F)F (stereo not drawn)	No
O=C(Nc1nc(C23CC4CC(CC(C4)C2)C3)cs1)c1cc2ccc(O)cc2oc1=O	No
CN(C)C(=O)c1nnsc1NN=O	No
O=C1CC(c2cccc(Br)c2)n2cccc21 (stereo not drawn)	No
COC1/C=C/C(C)C(C(C)C(OC)C(C)CCC(=O)C(C)C(C/C=C/N(C)C=O)OC)OC(=O)/C=C/C=C(\C)CC(OC)C(OC)C2=CC(=O)O[C@@H](C(C)C(OC)CC(OC)/C=C/C(C)C(O)C1)[C@H]2O (stereo partly drawn)	Yes
Cc1cc(CS(=O)(=O)/C=C/c2ccccc2[N+](=O)[O-])c(CS(=O)(=O)/C=C/c2ccccc2[N+](=O)[O-])cc1C	No
CC(=O)OC1COC(Nc2nc(N)n(C)c(=O)c2N=O)C(OC(C)=O)C1OC(C)=O (stereo not drawn)	No
O=C1Nc2ccc([N+](=O)[O-])cc2/C1=N/NC(=S)Nc1ccc([N+](=O)[O-])cc1	No

====

Tested on: SNB-78
Test: NCI tumour cell line growth inhibition, 48 h
Activity calls are given as the source filed them. No stated cut-off is given here; in the data, active = GI50 up to about 1.1 µM and inactive = higher.
Each entry below carries its recorded GI50.

compound	GI50
O=C(CO)C1CC2C=CC1C2 (configuration not stated)	> 100 µM (inactive)
Cn1sc2ccccc2c1=S	15 µM (inactive)
CCOC1=C2C(=O)OC(=O)C2C2CCCCC2=C1 (configuration not stated)	> 100 µM (inactive)
CC(=O)OC(CCC1(C)OC1COc1ccc(CCNC(=O)C=C(C)C)cc1)C(C)(C)OC(C)=O (configuration not stated)	24.5 µM (inactive)
O=C1CCCn2c3ccccc3c3ccnc1c32	44.8 µM (inactive)
CCN(CC)C(=O)C/C(C)=N/NC(=O)c1ccncc1	> 100 µM (inactive)
CCN(CC)C(=S)SS(C)(=O)=O	23.7 µM (inactive)

====

Test system: RPMI-8226
Test: NCI tumour cell line growth inhibition, 48 h
Active and inactive are the calls of the source. Rule as the data show it: active = GI50 up to about 1.1 µM and inactive = higher.
Each entry below carries its recorded GI50.

compound	GI50
CC12CCC(Br)C(C)(C)C1CC=C1C(=O)OCC1O2 (stereo unspecified)	2.73 µM (inactive)
O/N=C1/C(=C/c2ccc(F)cc2)CCCC1C(NO)c1ccc(F)cc1 (stereo unspecified)	20.8 µM (inactive)
Cc1c(-c2ccccc2)[nH]c2ccc(Cl)cc2c1=O	15.2 µM (inactive)
CC(NC(=O)NC(C)(C)C)NC(=O)C(N)CC(=O)O (stereo unspecified)	> 100 µM (inactive)
CN(C)CCCN1c2ccccc2CCc2cccc([N+](=O)[O-])c21	11.1 µM (inactive)
CCN(CCCl)c1cccc(NC(=O)c2ccc(C(=O)Nc3cccc(CN(C)C)c3)cc2)c1	0.267 µM (active)
O=C1OC2(c3ccccc31)c1cc(I)c(O)c(I)c1Oc1c2cc(I)c(O)c1I	> 100 µM (inactive)
COC(=O)C1Cc2c([nH]c3ccccc23)-c2[nH]c3ccccc3c2CC(NC(C)=O)C(=O)NCC(=O)NCC(=O)N1 (stereo unspecified)	> 100 µM (inactive)
CCN(CC)C(=O)C/C(C)=N/NC(=O)c1ccncc1	> 100 µM (inactive)
Cc1nc(-c2ccccc2)cc2c1c(=O)oc1ccccc12	> 100 µM (inactive)
CN(C)CCN1CCc2c([nH]c3ccccc23)C1c1cccnc1 (stereo unspecified)	> 100 µM (inactive)
Cc1ccc([N+](=O)[O-])cc1S(=O)(=O)Nc1ccc(C2=NN(C(=O)c3ccccc3)C(c3cccs3)C2)cc1 (stereo unspecified)	31.6 µM (inactive)
CC(=O)Oc1ccc(C)c2c1[C@H]1CC[C@]3(C)[C@@H](OC(C)=O)CC[C@H]3[C@@H]1CC2	19.4 µM (inactive)
C/C(=N\Nc1nc2cc(C(F)(F)F)ccc2s1)c1ccccn1	0.402 µM (active)
COc1ccc(C(=O)c2c(C(C(=O)c3ccc(OC)cc3)C(=O)c3ccc(OC)cc3)n(C(=O)c3ccc(OC)cc3)c3ccccc23)cc1	> 100 µM (inactive)
[N-]=[N+]=Nc1ccc(CNc2cc(=O)[nH]c(=O)[nH]2)cc1	> 100 µM (inactive)

====

Test system: T47D
Assay: NCI tumour cell line growth inhibition, 48 h
Calls of active or inactive are those of the source. Cut-off read from the data, not from the text of the source: active = GI50 up to about 1.1 µM and inactive = higher.

compound	GI50
OCCCCCNc1c2ccccc2nc2ccccc12	2.82 µM (inactive)
CCc1nc(N)nc(N)c1-c1ccc([N+](C)(C)C)cc1	> 100 µM (inactive)
c1ccc(COc2ccc(CC3SCCCS3)cc2)cc1	49.7 µM (inactive)
NP(=O)(OCC1=CC(=O)c2ccccc2C1=O)N(CCBr)CCBr (centres undefined)	3.48 µM (inactive)
O=C1CSSCC(=O)Nc2ccccc2N1	> 100 µM (inactive)
COc1cc(Cn2c3c(c4cc(O)ccc42)C(=O)c2ccccc2C3=O)cc(OC)c1	6.35 µM (inactive)
CCC1C2Cc3ccc(O)cc3C1(CC)CCN2C (centres undefined)	> 100 µM (inactive)
CC1(C)CCC(C)(C)c2cc(NC(=O)c3ccc(C(=O)O)cc3)ccc21 [TAMIBAROTENE]	33.7 µM (inactive)
C=CCc1cccc2cc(C(=O)Nc3ccccn3)c(=N)oc12	55.5 µM (inactive)

====

Test system: SK-MEL-2
Assay: NCI tumour cell line growth inhibition, 48 h
Active and inactive are the calls of the source. Cut-off read from the data, not from the text of the source: active = GI50 up to about 1.1 µM and inactive = higher.
Each entry below carries its recorded GI50.
readout: GI50

smiles.input	tgt	result
N=C(N)N/N=C(\c1ccc(Cl)cc1)C1CC1	SK-MEL-2	18.3 µM (inactive)
O=C1CSSCC(=O)Nc2ccccc2N1	SK-MEL-2	> 100 µM (inactive)
CCN(CC)C(=S)SS(C)(=O)=O	SK-MEL-2	17.7 µM (inactive)

====

System: KM-20L2
Experiment: NCI tumour cell line growth inhibition, 48 h
The source made the active and inactive calls. Cut-off read from the data, not from the text of the source: active = GI50 up to about 1.1 µM and inactive = higher.

compound	GI50
O=C1[C@H](Cl)[C@H]2c3cc4ccccc4nc3Oc3ccccc3N12	43.4 µM (inactive)
CC(C)=CCC/C(C)=C/Cc1c(O)ccc2c1[nH]c1cc(O)c(C)cc12	13.4 µM (inactive)
COc1ccc2cc3n(c(=O)c2c1)CCc1c-3cc(OC)c(OC)c1OC	> 100 µM (inactive)
O=C(N/C(=C\c1ccc(/C=C(\NC(=O)c2ccccc2)c2nc3cc(Cl)ccc3[nH]2)cc1)c1nc2cc(Cl)ccc2[nH]1)c1ccccc1	18 µM (inactive)
CCCCCCCC(=O)OCC1OC(n2cc(F)c(=O)[nH]c2=O)C(N)C(OC(=O)CCCCCCC)C1O (stereo not drawn)	18.9 µM (inactive)
CC1=CC(=O)c2c(C=O)c(O)c(O)c(C(C)C)c2C1=O	29.1 µM (inactive)
Cc1ccc(NC(=O)C2C(=O)N(c3ccc(C)c(C)c3)C(=O)C2N=N)cc1C (stereo not drawn)	> 100 µM (inactive)
COc1ccc2[nH]c3c(C)c4cc[n+](C)cc4c(C)c3c2c1	3.17 µM (inactive)

====

Each entry below carries its recorded GI50.
Tested on: IGROV-1
Test: NCI tumour cell line growth inhibition, 48 h
Calls of active or inactive are those of the source. Rule as the data show it: active = GI50 up to about 1.1 µM and inactive = higher.

compound	GI50
Cc1ccc(C)c(C(=N)c2ccccc2Cc2ccccc2)c1	25.6 µM (inactive)
C/C=C\C(CC(=O)NCCC1CN(S(=O)(=O)C(F)(F)F)c2ccccc21)CC(=O)OC (stereo unspecified)	50 µM (inactive)
Cc1oc2nc(N(C)C)nc(NN)c2c1C	> 100 µM (inactive)
CC(NC(=O)NC(C)(C)C)NC(=O)C(N)CC(=O)O (stereo unspecified)	> 100 µM (inactive)
Cc1ccc(-c2cc(-c3c(C)nn(C)c(=O)c3N)n[nH]2)cc1	> 100 µM (inactive)
Cc1[nH]n(-c2ncc(C(=O)O)c(=O)[nH]2)c(=O)c1CCO	> 100 µM (inactive)
